# Test system: HT29 cell line (colorectal adenocarcinoma from human)
# Type: cell-based
# condition: read-out: IC50 [µM] against HT29
I'd appreciate it if you marked entries true when IC50 is lower than 700 µM and false when it is not.

hey, is IC50 for O=C(NCCCNc1c2c(nc3ccccc13)CCCC2)c1ccccc1F lower than 700 µM or not?
true

hey, is IC50 for O=c1[nH]cc(F)c(=O)[nH]1 lower than 700 µM or not?
false

hey, is IC50 for O=C(NCCNc1c2c(nc3ccccc13)CCCC2)c1ccccc1F lower than 700 µM or not?
true

hey, is IC50 for O=C(NCCCNc1c2c(nc3ccccc13)CCCC2)c1cccc(F)c1 lower than 700 µM or not?
true

hey, is IC50 for COc1cc([C@@H]2c3cc4c(cc3[C@@H](O[C@@H]3O[C@@H]5CO[C@@H](C)O[C@H]5[C@H](O)[C@H]3O)[C@H]3COC(=O)[C@H]23)OCO4)cc(OC)c1O [Compound C1, Etoposide] lower than 700 µM or not?
true
